Listing of recorded cell viability by entry.
Test system: P12-Ichikawa
Assay: cell viability relative to DMSO control; higher = less cytotoxic
Experimental Conditions: HPLM + 10% dialyzed FBS; 48 h; 0.000781 µM
Express your answer in %, writing the number without its unit.

Briefly, cell viability measured for NNCCc1ccccc1 : 116

The molecule identified as CN(C)C1CCN(C(=O)c2ccc(NC(=O)Nc3nc(N4CCOCC4)nc(N4CCOCC4)n3)cc2)CC1 registered its cell viability at 91.2

Measured cell viability of CC(C)OC(=O)C(C(=O)OC(C)C)=C1S\C=C/S1 : 138

In plain terms, Cc1c(C)n(Cc2ccc(-c3ccccc3C(=O)O)cc2)c2ccc(C(=O)N[C@@H](C)c3ccc([N+](=O)[O-])cc3)cc12 has a documented cell viability of 103

Per the records, this molecule ( OC[C@H]1O[C@H]([C@H](O)[C@@H]1O)N2\C=C/C(=O)NC2=O ) has cell viability equal to 108

Record CC(C)CNc1ccnc(NCc2csc(-c3ccccc3)n2)n1 . Reported cell viability: 110

COc1cc(OC2CCN(C)CC2)ccc1Nc1ncc2c(n1)n(C1CCCC1)c(=O)n2C has a reported cell viability of 83.2

// cell viability value for CN[C@H]1CCC2=CC(=C(OC)C(=C2C/3=C/C=C(OC)\C(=O)/C=C13)OC)OC : 107

// CC(C)C1NC(=O)C(NC(=O)C2=C3\N=C\4/C(=C(C)\C(=O)\C(=C4C(=O)NC5C(C)OC(=O)C(C(C)C)N(C)C(=O)CN(C)C(=O)C6CCCN6C(=O)C(NC5=O)C(C)C)N)OC3=C(C)C=C2)C(C)OC(=O)C(C(C)C)N(C)C(=O)CN(C)C(=O)C7CCCN7C1=O (configuration not stated) : cell viability value = 8.89

response.value for COCC1(CO)C(=O)C2CCN1CC2 (configuration not stated) (field: cell viability) = 90.6

More entries:
The recorded cell viability for entry O=C(O)Cn1nnc(-c2cc(N3CCC(Oc4cc(F)ccc4Br)CC3)no2)n1 equals 97.6

The measured cell viability associated with CCC1(c2ccccc2)C(=O)NCNC1=O reads 103

Given item ClC1=CC=C(C=C1)C(C#N)C2=C(Cl)C=C(C=C2Cl)N3\N=C/C(=O)NC3=O (configuration not stated) , the value recorded as its cell viability is 110

// cell viability value for O=C1NC(=O)/C(=C/c2ccc3nccc(-c4ccncc4)c3c2)S1 : 112

Consider CC(C)(C)OC(=O)N[C@H]1CCCCC/C=C\[C@@H]2C[C@@]2(C(=O)N[S+](=O)([O-])C2CC2)NC(=O)[C@@H]2C[C@@H](OC(=O)N3Cc4cccc(F)c4C3)CN2C1=O . Its measured cell viability is 108

Entry CC(C)c1nc(CN(C)C(=O)N[C@H](C(=O)N[C@@H](Cc2ccccc2)C[C@H](O)[C@H](Cc2ccccc2)NC(=O)OCc2cncs2)C(C)C)cs1 — recorded cell viability = 91.9

According to the records, this molecule CN(C)[S+](=O)([O-])c1ccc2c(c1)C(=Cc1cc3c([nH]1)CCCC3)C(=O)N2 displays cell viability of 124

Values were extracted from the supplement of paper PMC11451515.
